System: Nucleic Acid
ASSAY_TEXT: Compound was evaluated for the association constant to an isolated site of DNA
Assay type: nucleic-acid assay
Parameters: unit not given here
CONDITION_DESCRIPTION: Bos taurus
# K listing for each entry below
REPORTED_PROPERTY: K

INSERT INTO measurements (molecule, value_reported) VALUES
  ('Cc1cc2c(o1)c(C)cc1ccc(=O)oc12', 1980),
  ('Cc1cc2c(o1)c(C)cc1c(C)cc(=O)oc12', 3310),
  ('Cc1cc(=O)oc2c1cc(C)c1occc12', 2990),
  ('Cc1cc2ccc(=O)oc2c2c(C)coc12', 6300),
  ('O=c1ccc2ccc3occc3c2o1 [ANGELICIN]', 560),
  ('Cc1cc(=O)oc2c1cc(C)c1occ(C)c12', 10100),
  ('Cc1cc2c(o1)c(C)c(C)c1ccc(=O)oc12', 3730),
  ('COc1c2occc2cc2ccc(=O)oc12 [METHOXSALEN]', 736);

Origin of values: ChEMBL document CHEMBL1122710
